system: MDA-MB-231 breast; assay: NCI-60 one-dose screen, 48 h; conditions: 10 µM unless noted
This is part of a sample that, as a whole, favours compounds with a hit. Of some 83,000 tested, about 20% had one in any assay. Active and inactive are the calls of the source. Rule for the calls: active = growth percent below 10; inactive = the rest.
Outcomes: active, inactive

query_smiles=Cc1ccc(-[n+]2c3cc(N)c(C)cc3nc3cc(C)c(Nc4ccccc4)cc32)cc1 target_of_assay="MDA-MB-231 breast" assigned_label=active
query_smiles=COc1cc(-c2cc(-c3ccc(Nc4ccnc5cc(Cl)ccc45)cc3)nc(N3CCOCC3)n2)cc(OC)c1OC target_of_assay="MDA-MB-231 breast" assigned_label=active
query_smiles=Cc1nc(Nc2n[nH]c3c2CN(C(=O)N[C@H](CN(C)C)c2ccccc2)C3(C)C)c2sccc2n1 target_of_assay="MDA-MB-231 breast" assigned_label=active
query_smiles=CCCCCCCC(=O)SCC/C=C/[C@@H]1CC(=O)NCc2nc(co2)C2=N[C@@](C)(CS2)C(=O)N[C@@H](C(C)C)C(=O)O1 target_of_assay="MDA-MB-231 breast" assigned_label=active
query_smiles=CNC(=O)c1cc(Oc2ccc3nc(NC(=O)Nc4ccc(Cl)c(C(F)(F)F)c4)sc3c2)ccn1 target_of_assay="MDA-MB-231 breast" assigned_label=active
query_smiles=N#Cc1cc2[nH]c3ccc(OC(F)(F)F)cc3c2oc1=O target_of_assay="MDA-MB-231 breast" assigned_label=inactive
query_smiles=CN1CCN(c2nc(NCCNc3ccnc4cc(Cl)ccc34)c3ccccc3n2)CC1 target_of_assay="MDA-MB-231 breast" assigned_label=active
